In this section, each of the compounds is paired with its reported growth.
tested on: SN12C renal; assay: NCI-60 one-dose screen, 48 h (100 = growth as untreated, 0 = no growth, -100 = all killed); conditions: 10 µM unless noted
About 83,000 compounds went through this panel and 20% of them were active in at least one assay; those are over-represented in the sample as a whole.
readout-name: growth (%)

| compound | readout-name | result |
| --- | --- | --- |
| NS(=O)(=O)N(c1cc(C(F)(F)F)cc(C(F)(F)F)c1)C1CCN(Cc2ccc(F)cc2)CC1 | growth | 42.2 |
| c1ccc(CSc2ncnc3nc[nH]c23)nc1 | growth | 98.6 |
| O=C(O)C(O)C(O)C(=O)O.[NH-]C1CCCCC1[NH-].[Pt+2] (stereo not given) | growth | 106 |
| Nc1ccc(Nc2nccc(-c3ccc4ccccc4c3)n2)cc1 | growth | 46.8 |
| COc1ccc(-n2cc(-c3ccccc3)c3c(SCC(=O)N/N=C/c4ccc([N+](=O)[O-])cc4)ncnc32)cc1 | growth | 102 |
| CC[C@]12C=CCN3CC[C@@]4(c5ccc(OC)cc5N(C)[C@H]4[C@@](O)(C(=O)OC)[C@@H]1OC(=O)CCC(=O)N[C@@H](Cc1c[nH]c4ccccc14)C(=O)OC)[C@@H]32 | growth | 71.5 |
| O=C1NC(=O)C(CC(=O)n2c(-c3ccccc3)nc3ccccc32)C(=O)N1 | growth | 99.5 |
| CCOC(=O)C(C#N)C1CCCCC1 (stereo not given) | growth | 79.6 |
| O=C1c2cc3c(cc2-c2c1c1cc(Cl)c(Cl)cc1c(=O)n2C[C@H](O)CO)OCO3 | growth | -22.2 |
| CCC(=O)OCc1cccc(OC)c1 | growth | 99 |

* * *

system: U251 CNS; assay: NCI-60 one-dose screen, 48 h (100 = growth as untreated, 0 = no growth, -100 = all killed); conditions: 10 µM unless noted
The panel holds about 83,000 compounds, 20% with a hit somewhere; the sample as a whole holds those more often. Calls of active or inactive are those of the source. How the source made its calls: active means growth percent below 10; inactive means the rest.
In this section, each of the compounds is paired with its reported growth.

| compound | target-system | growth |
| --- | --- | --- |
| Clc1ccc(-c2nnc(COc3ccccc3Cl)o2)cc1 | U251 CNS | 60.3% (inactive) |
| C/C(Cc1ccc(Cl)cc1)=C(\c1ccc(OCCN2CCCCCC2)cc1)c1ccc(OC(=O)Cc2ccccc2)cc1 | U251 CNS | 42.5% (inactive) |
| CC(C)n1cc2c(N)ncnc2n1 | U251 CNS | 106% (inactive) |
| C=C1CCC2C3(C)COC(c4ccc(OC)cc4Br)OC3CCC2(C)C1/C=C/C1=CCOC1=O (centres undefined) | U251 CNS | 74.7% (inactive) |
| CS(=O)(=O)c1c(Nc2ccccc2)n[nH]c1N | U251 CNS | 105% (inactive) |
| Cc1ccc2cnc(N)c(C#Cc3cncc(C(=O)Nc4ccc(CN5CCN(C)CC5)c(C(F)(F)F)c4)c3)c2c1 | U251 CNS | -89.5% (active) |
| O=C(CN1CCOCC1)Nc1ccc(Cn2nnc3c2C(=O)c2nnn(Cc4ccc(NC(=O)CN5CCOCC5)cc4)c2C3=O)cc1 | U251 CNS | -92.1% (active) |
| COc1ccc(C2c3ccc4ccccc4c3Oc3ncnc(N)c32)cc1 (centres undefined) | U251 CNS | 92.8% (inactive) |
| COC(=O)C12C3C(=O)N(c4ccc(OC)cc4)C(=O)C3C(c3cn(-c4ccccc4)nc3C)N1[C@H](c1cn(-c3ccccc3)nc1C)[C@@H]1C(=O)N(c3ccc(OC)cc3)C(=O)[C@@H]12 (some centres undefined) | U251 CNS | 93.9% (inactive) |
